Field: inhibition in vivo at 200 mg/kg. Provide a value for each of the molecules that follow.
Tested on: Rattus norvegicus
Experiment: Antiinflammatory activity measured as the percentage inhibition of edema in carrageenan induced rat paw after peroral administration of 200 mg/kg of compound
Assay type: functional
Details: route oral
State the result as a value with its unit after it.

Given item "Cn1c(-c2cccc(Cl)c2)nc2c3ccccc3ccc21" , the value recorded as its inhibition in vivo at 200 mg/kg is 7%

Given item "COc1ccc(-c2nc3c(ccc4ccccc43)[nH]2)cc1" , the value recorded as its inhibition in vivo at 200 mg/kg is 10%

Given item "C=Cn1c(-c2ccc(OC)cc2)nc2c3ccccc3ccc21" , the value recorded as its inhibition in vivo at 200 mg/kg is 58%

Given item "CCC(CC)n1c(-c2ccc(OC)cc2)nc2c3ccccc3ccc21" , the value recorded as its inhibition in vivo at 200 mg/kg is 11%

Given item "CC(C)Oc1ccc(-c2nc3c4ccccc4ccc3n2C)cc1" , the value recorded as its inhibition in vivo at 200 mg/kg is 31%

Given item "Cn1c(-c2ccc3c(c2)OCO3)nc2c3ccccc3ccc21" , the value recorded as its inhibition in vivo at 200 mg/kg is 28%

Given item "Cl.Cl.Cn1c(-c2cccnc2)nc2c3ccccc3ccc21" , the value recorded as its inhibition in vivo at 200 mg/kg is 12%

Given item "CCn1c(-c2ccc(OC)cc2)nc2c3ccccc3ccc21" , the value recorded as its inhibition in vivo at 200 mg/kg is 52%

Given item "Cc1cc(-c2nc3c4ccccc4ccc3n2C)ccc1N(C)C" , the value recorded as its inhibition in vivo at 200 mg/kg is 69%

Given item "COc1ccc(-c2nc3c4ccccc4ccc3n2C2CCCCC2)cc1" , the value recorded as its inhibition in vivo at 200 mg/kg is 16%

Given item COc1ccc(-c2nc3c4ccccc4ccc3n2C(C)CO)cc1 (stereo unspecified) , the value recorded as its inhibition in vivo at 200 mg/kg is 35%

Given item "COc1cccc(-c2nc3c4ccccc4ccc3n2C)c1" , the value recorded as its inhibition in vivo at 200 mg/kg is 21%

Given item "Cn1c(-c2ccccc2O)nc2c3ccccc3ccc21" , the value recorded as its inhibition in vivo at 200 mg/kg is 1%

Given item "Cn1c(-c2ccc(O)cc2)nc2c3ccccc3ccc21" , the value recorded as its inhibition in vivo at 200 mg/kg is 4%

Given item "CC(=O)Oc1ccc(-c2nc3c4ccccc4ccc3n2C)cc1" , the value recorded as its inhibition in vivo at 200 mg/kg is 8%

Given item "Cl.Cn1c(-c2ccccn2)nc2c3ccccc3ccc21" , the value recorded as its inhibition in vivo at 200 mg/kg is 24%

Given item "COc1ccc(-c2nc3c4ccccc4ccc3n2CCO)cc1" , the value recorded as its inhibition in vivo at 200 mg/kg is 11%

Given item CCC(C)n1c(-c2ccc(OC)cc2)nc2c3ccccc3ccc21 (stereo unspecified) , the value recorded as its inhibition in vivo at 200 mg/kg is 18%

Given item "COc1ccccc1-c1nc2c3ccccc3ccc2n1C" , the value recorded as its inhibition in vivo at 200 mg/kg is 0%

Given item "CC(=O)Nc1ccc(-c2nc3c4ccccc4ccc3n2C)cc1" , the value recorded as its inhibition in vivo at 200 mg/kg is 35%

Given item "COc1ccc(-c2nc3c4ccccc4ccc3n2C(C)(C)C)cc1" , the value recorded as its inhibition in vivo at 200 mg/kg is 19%

---

Tested on: Rattus norvegicus
Test: Antiinflammatory activity measured as the percentage inhibition of edema in carrageenan induced rat paw after peroral administration of 200 mg/kg of compound
Type: functional
Conditions: route oral
Field: inhibition in vivo at 200 mg/kg. Provide a value for each of the compounds that follow.
Reply numerically in %, unit not repeated.

Given item "Cn1c(-c2ccncc2)nc2c3ccccc3ccc21" , the value recorded as its inhibition in vivo at 200 mg/kg is 63

Given item "Cc1ccc(-c2nc3c4ccccc4ccc3n2C)cc1" , the value recorded as its inhibition in vivo at 200 mg/kg is 21

Given item "Cn1c(-c2cccs2)nc2c3ccccc3ccc21" , the value recorded as its inhibition in vivo at 200 mg/kg is 40

Given item "CCCn1c(-c2ccc(OC)cc2)nc2c3ccccc3ccc21" , the value recorded as its inhibition in vivo at 200 mg/kg is 20

Given item "CCOc1ccc(-c2nc3c4ccccc4ccc3n2C)cc1" , the value recorded as its inhibition in vivo at 200 mg/kg is 45

Given item "Cn1c(-c2ccc(Cl)cc2)nc2c3ccccc3ccc21" , the value recorded as its inhibition in vivo at 200 mg/kg is 21

Given item "COc1ccc(-c2nc3c4ccccc4ccc3n2C)cc1C" , the value recorded as its inhibition in vivo at 200 mg/kg is 35

---

Field: inhibition in vivo at 100 mg/kg. Provide a value for each of the molecules that follow.
Tested on: Rattus norvegicus
Assay: Antiinflammatory activity was measured as the percentage inhibition of edema in carrageenan induced rat paw after peroral administration of 100 mg/kg of compound
Assay type: functional
Details: route oral
Reply numerically in %, unit not repeated.

Given item "CC(C)Oc1ccc(-c2nc3c4ccccc4ccc3n2C)cc1" , the value recorded as its inhibition in vivo at 100 mg/kg is 25

Given item "CCOc1ccc(-c2nc3c4ccccc4ccc3n2C)cc1" , the value recorded as its inhibition in vivo at 100 mg/kg is 37

Given item "Cn1c(-c2cccs2)nc2c3ccccc3ccc21" , the value recorded as its inhibition in vivo at 100 mg/kg is 31

Given item "CCn1c(-c2ccc(OC)cc2)nc2c3ccccc3ccc21" , the value recorded as its inhibition in vivo at 100 mg/kg is 49

Given item "COc1ccc(-c2nc3c4ccccc4ccc3n2C)cc1" , the value recorded as its inhibition in vivo at 100 mg/kg is 41

Given item "COc1ccc(-c2nc3c4ccccc4ccc3n2C2CC2)cc1" , the value recorded as its inhibition in vivo at 100 mg/kg is 53

---

Tested on: Rattus norvegicus
Experiment: Antiinflammatory activity measured as the percentage inhibition of edema in carrageenan induced rat paw after peroral administration of 200 mg/kg of compound
Format: functional
Settings: route oral
ASSAY ENDPOINT: inhibition in vivo at 200 mg/kg (%)
Reply numerically in %, unit not repeated.

Kindly note: Rattus norvegicus, "Cn1c(-c2ccc[nH]2)nc2c3ccccc3ccc21" , inhibition in vivo at 200 mg/kg value reported: 1

Kindly note: Rattus norvegicus, "CNc1ccc(-c2nc3c4ccccc4ccc3n2C)cc1" , inhibition in vivo at 200 mg/kg value reported: 59

Kindly note: Rattus norvegicus, "COc1ccc(-c2nc3c4ccccc4ccc3n2C2CC2)cc1" , inhibition in vivo at 200 mg/kg value reported: 56

Kindly note: Rattus norvegicus, "CCCCn1c(-c2ccc(OC)cc2)nc2c3ccccc3ccc21" , inhibition in vivo at 200 mg/kg value reported: 25

Kindly note: Rattus norvegicus, "C=C(C)n1c(-c2ccc(OC)cc2)nc2c3ccccc3ccc21" , inhibition in vivo at 200 mg/kg value reported: 58

Kindly note: Rattus norvegicus, "Cn1c(-c2ccccc2)nc2c3ccccc3ccc21" , inhibition in vivo at 200 mg/kg value reported: 42
